Readout Kind: melting point

Record excerpt, results attached:
{"Compound": "CCOC(=O)C1=C(C)N/C(=C/c2cc(C)n(C3CCN(CCC(C)C)CC3)c2C)C1=O [Compound 21]", "melting point": "158 to 162 °C"}
{"Compound": "CCOC(=O)C1=C(C)N/C(=C/c2cc(C)n(C3CCN(Cc4ccc(-c5noc(C)n5)cc4)CC3)c2C)C1=O [Compound 51]", "melting point": "195 to 200 °C"}
{"Compound": "CCOC(=O)C1=C(C)N/C(=C/c2cc(C)n(C3CCN(CC(C)(C)C)CC3)c2C)C1=O [Compound 23]", "melting point": "139 to 142 °C"}
{"Compound": "CCOC(=O)C1=C(C)N/C(=C/c2cc(C)n(C3CCN(C(C)c4ccccc4C(F)(F)F)CC3)c2C)C1=O (stereo not shown) [Compound 36]", "melting point": "138 to 142 °C"}

Provide reported melting point for each item, in the same order as listed.
1. Cc1cc(/C=C2/Nc3ccn(CCN(C)C)c(=O)c3C2=O)c(C)n1-c1ccccc1C(F)(F)F [Compound 61]
2. CCOC(=O)C1=C(C)N/C(=C/c2cc(C)n(C3CCN(CC4CCN(C)CC4)CC3)c2C)C1=O [Compound 42]

Key:
1: 125 to 128 °C; 2: 230 to 235 °C

Exercise: Recorded melting point for Cc1cc(/C=C2/Nc3ccn(CCN4CCOCC4)c(=O)c3C2=O)c(C)n1-c1ccccc1C(F)(F)F [Compound 60] , please?
Key: 180 to 185 °C
